FYI, the data here is from patent US11014876B2.

assay: Microsomal stability, mouse; type: in vitro ADME; conditions: microsomes, read-out: Microsomal Stability, t1/2
ENDPOINT_NAME: half-life (min)
A number alone suffices; assume min.

QUERY: Please report the measured half-life for CC(C)[C@H](CN)NC[C@H](C)NS(=O)(=O)c1ccc(C(C)(C)C)cc1 [Compound 2470-51]
RESULT: 8

* * *

assay: Microsomal stability, human; format: in vitro ADME; conditions: microsomes, read-out: Microsomal Stability, t1/2
ENDPOINT_NAME: half-life (min)
A number alone suffices; assume min.

QUERY: Please report the measured half-life for CC(C)[C@H](CN)NC[C@H](C)NS(=O)(=O)c1ccc(C(C)(C)C)cc1 [Compound 2470-51]
RESULT: 33

* * *

test: Aqueous solubility; format: physicochemical; conditions: aqueous medium
ENDPOINT_NAME: solubility

QUERY: Please report the measured solubility for CC(C)[C@H](CN)NC[C@H](C)NS(=O)(=O)c1ccc(C(C)(C)C)cc1
RESULT: > 100 µM
